Let's look at some compounds and their measured IC50.
study.target: Receptor-interacting serine/threonine-protein kinase 2 (Homo sapiens) (UniProt O43353)
Sequence (O43353 whole entry, looked up): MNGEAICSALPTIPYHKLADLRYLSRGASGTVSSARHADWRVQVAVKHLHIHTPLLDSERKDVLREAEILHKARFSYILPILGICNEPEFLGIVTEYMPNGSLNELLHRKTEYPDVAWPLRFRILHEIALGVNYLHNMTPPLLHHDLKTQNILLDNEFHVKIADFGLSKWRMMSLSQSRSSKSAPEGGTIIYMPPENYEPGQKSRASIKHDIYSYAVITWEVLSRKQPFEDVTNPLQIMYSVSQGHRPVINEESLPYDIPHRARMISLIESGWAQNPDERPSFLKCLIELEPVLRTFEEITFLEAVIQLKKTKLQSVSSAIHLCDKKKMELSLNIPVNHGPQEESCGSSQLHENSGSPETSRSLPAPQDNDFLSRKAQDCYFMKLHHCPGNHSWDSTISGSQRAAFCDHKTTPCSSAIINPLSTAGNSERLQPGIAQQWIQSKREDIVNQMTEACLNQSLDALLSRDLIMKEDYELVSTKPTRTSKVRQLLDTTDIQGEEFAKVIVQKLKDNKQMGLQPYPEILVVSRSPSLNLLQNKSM
method.notes: RIPK2-NOD2 association inhibitors, IC50 – cell-based, fluorescence, late-stage follow-up (AID 651962)
condition.set: cell-based NOD2-RIPK2 interaction, fluorescence read-out
Calls of active or inactive are those of the source. The rule behind the calls is not given here.

>  <compound>
Cc1ccc(C(C[N+](=O)[O-])n2nc(C)cc2C)cc1 (stereo not given)

>  <data.value>
2.97 µM

$$$$
>  <compound>
O=[N+]([O-])c1cc(S(=O)(=O)N2CCCCCC2)ccc1F

>  <data.value>
8.04 µM

$$$$
>  <compound>
Cc1ncc([N+](=O)[O-])n1Cc1ccc(Cl)c(Cl)c1

>  <data.value>
> 49.8 µM (inactive)

$$$$

Query compound follows.
Inquiry: Supply IC50 value. Item: "Cc1cc(S(=O)(=O)N2CCCCCC2)ccc1F"
Reply text: > 49.8 µM (inactive)
